tested on: P4 MAGI CCR5+ cells; experiment: Cytotoxicity (CellTiter 96 AQueous); type: cell-based; conditions: 24 h
PROPERTY MEASURED: CC50

Tell me the measured CC50 of COc1cc2c3c(c1O)-c1cc(N(Cc4ccccc4)Cc4ccccc4)ccc1CC3N(C)CC2 (stereo not shown) [NSC785176] , please.
> 5 µM

---

assay: Cytotoxicity (CellTiter 96 AQueous); format: cell-based; conditions: human
PROPERTY MEASURED: CC50 (nM)
Express it in nM; write the number only.

Tell me the measured CC50 of CC(=O)[C@]1(O)Cc2c(O)c3c(c(O)c2[C@@H](O[C@H]2C[C@H](N)[C@H](O)[C@H](C)O2)C1)C(=O)c1c(O)cccc1C3=O [Compound 1d] , please.
40
